# assayed.target: Fuc(a1-3)[Gal(b1-4)]GlcNAc(b1-2)Man(a1-6)[Gal(b1-4)GlcNAc(b1-2)Man(a1-3)]Man(b1-4)GlcNAc(b1-4)GlcNAc
# method.summary: glycan array binding signal (z-score within array); higher = stronger binding
# setup.conditions: glycan notation: IUPAC condensed, linker removed
The sample as a whole holds a higher share of the strongest signals than the screen did.
recorded.endpoint: glycan array binding signal (z-score)
Lab note: record just the number, no unit beside it.

Example results:
binder	measured.result
MCL (Mus musculus), Q9Z2H6 (protein) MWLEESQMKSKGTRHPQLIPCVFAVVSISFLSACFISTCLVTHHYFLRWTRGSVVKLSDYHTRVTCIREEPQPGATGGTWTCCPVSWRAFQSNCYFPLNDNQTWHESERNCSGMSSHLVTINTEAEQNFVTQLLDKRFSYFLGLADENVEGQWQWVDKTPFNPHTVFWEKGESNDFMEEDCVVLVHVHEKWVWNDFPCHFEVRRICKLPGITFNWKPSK	5.26
MGL6A (Homo sapiens) (protein) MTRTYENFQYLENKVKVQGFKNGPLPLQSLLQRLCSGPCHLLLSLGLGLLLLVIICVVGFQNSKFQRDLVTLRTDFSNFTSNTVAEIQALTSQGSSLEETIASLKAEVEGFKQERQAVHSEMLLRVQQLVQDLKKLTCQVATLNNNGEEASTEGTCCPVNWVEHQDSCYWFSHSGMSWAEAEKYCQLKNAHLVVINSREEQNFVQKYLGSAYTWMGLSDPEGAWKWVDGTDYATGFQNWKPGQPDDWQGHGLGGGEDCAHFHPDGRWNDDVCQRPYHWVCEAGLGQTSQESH	1.06

Memo: Flo5 (Saccharomyces cerevisiae), P38894 (protein) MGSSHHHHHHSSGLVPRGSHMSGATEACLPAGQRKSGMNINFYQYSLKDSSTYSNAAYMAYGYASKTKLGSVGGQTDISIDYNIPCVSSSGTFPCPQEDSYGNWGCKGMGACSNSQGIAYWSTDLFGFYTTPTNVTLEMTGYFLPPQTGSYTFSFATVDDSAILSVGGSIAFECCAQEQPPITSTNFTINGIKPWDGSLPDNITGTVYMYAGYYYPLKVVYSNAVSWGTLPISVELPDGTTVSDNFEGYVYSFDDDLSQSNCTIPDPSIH , reported glycan array binding signal (z-score): -0.206
